// cross-study collection: pKi for Coagulation factor X (Homo sapiens)
pKi: −log10 of the molar value.
quantity.measured: pKi

| molecule | pKi |
| --- | --- |
| COc1ccc(-n2nc(C(N)=O)c3c2C(=O)N(C2CCN(c4ccccc4CN4CCCC4)CC2)CC3)cc1 | 9.59 |
| N=C(N)c1ccc(CCC(CC(=O)N2CCCC2)c2cccc(C(=N)N)c2)cc1 (stereo not drawn) | 5.94 |
| CCC(C)(C)C(NC(=O)[C@@H]1CCCN1C(=O)[C@H](Cc1ccccc1)NC(=O)OCc1ccccc1)B1O[C@@H]2CC3CC(C3(C)C)[C@]2(C)O1 (stereo partly drawn) | 5.59 |
| CC(=N)N1CCC(Oc2ccc(C(=O)NCCOc3cccc(C(=N)N)c3)cc2)CC1 | 6.77 |
| CNC(=O)Nc1ccc(Oc2cccc(C(=N)N)c2)nc1Oc1cccc(C(=N)N)c1 | 7.23 |

[A] COC(=O)N1CCN(C(=O)[C@H](Cc2cccc(C(=N)N)c2)NS(=O)(=O)c2ccc3ccccc3c2)CC1
[B] N=C(N)NCCC(=O)N1CCN(C(=O)[C@H](Cc2cccc(C(=N)N)c2)NS(=O)(=O)Cc2ccc3ccccc3c2)CC1
Between A and B , whose measured pKi reads higher? Record your answer as the label of the chosen record. A
(A: 4.11, B: 3.89)
